Test: Volume of distribution at steady state in Sprague-Dawley rat at 1 mg/kg, iv
Format: ADME, organism-based
Design: dose 1 mg/kg, route intravenous
Conditions: in vivo, read-out: Vdss
measurement_label: Vd (L/kg)
Form entry: value (L/kg) — number only.

The reported value for CC(=O)NCCN[C@H](C)c1cnc2c(C)c(NC(=O)c3ccc(OCC4CC4)cc3)ccc2c1 in terms of Vd is 1.21

====

Biological target: Melanin-concentrating hormone receptor 1 (Rattus norvegicus, UniProt P97639)
Sequence (P97639 whole entry): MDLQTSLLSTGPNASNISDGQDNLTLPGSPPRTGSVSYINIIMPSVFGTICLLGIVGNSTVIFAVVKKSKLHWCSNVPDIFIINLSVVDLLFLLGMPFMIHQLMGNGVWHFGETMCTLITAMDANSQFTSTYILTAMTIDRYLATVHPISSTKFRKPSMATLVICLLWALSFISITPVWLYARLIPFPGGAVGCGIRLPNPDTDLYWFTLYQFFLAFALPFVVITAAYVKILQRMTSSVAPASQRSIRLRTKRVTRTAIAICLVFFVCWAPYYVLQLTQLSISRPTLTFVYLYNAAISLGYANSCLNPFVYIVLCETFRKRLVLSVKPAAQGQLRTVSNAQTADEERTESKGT
Test: Displacement of [125I]MCH from rat MCHR1 expressed in CHO cells after 60 mins by liquid scintillation counting
Threshold-based label: IC50 under 6 nM gives Criterion met, IC50 not under 6 nM gives Criterion not met.

>>> cat("Cc1c(NC(=O)c2ccc(OCC3CC3)cc2)ccc2cc([C@@H](C)N3CCCC3)cnc12")
"Criterion met"
>>> cat("Cc1c(NC(=O)c2ccc(OCC3CC3)cc2)ccc2cc(C(C)N3CCCCCC3)cnc12 (racemic)")
"Criterion met"
>>> cat("Cc1c(NC(=O)c2ccc(OCC3CC3)cc2)ccc2cc(C(C)NCC(C)(C)O)cnc12 (racemic)")
"Criterion met"

Query: Below 6 nM on IC50? Entry Cc1c(NC(=O)c2ccc(-c3ccc(F)cc3)cc2)ccc2cc(CN3CCCC3)cnc12
Result: Criterion met

Query: Below 6 nM on IC50? Entry Cc1c(NC(=O)c2ccc(OCC3CC3)cc2)ccc2cc([C@H](C)N3CCCC3)cnc12
Result: Criterion not met
